- Tested on: MDA-MB-231
- procedure_details: NCI tumour cell line growth inhibition, 48 h
Activity calls are given as the source filed them. Rule as the data show it: active = GI50 up to about 1.1 µM and inactive = higher.
value_type: GI50

Consider the compound COC(=O)c1nc2n(n1)-c1ccccc1C(=O)N(Cc1ccccc1)C2 and give its measured GI50.
> 100 µM (inactive)

Consider the compound CC1CCc2sc3nc4n(c(=O)c3c2C1)CC(C)S4 (stereo not drawn) and give its measured GI50.
20.4 µM (inactive)

Consider the compound COc1ccc2c(c1)CCN1CCc3cc(OC)c(OC)cc3CC21 (stereo not drawn) and give its measured GI50.
> 100 µM (inactive)

* * *

Would you kindly list GI50 for each of these molecules?
- Tested on: UACC-257
- procedure_details: NCI tumour cell line growth inhibition, 48 h
Calls of active or inactive are those of the source. Rule as the data show it: active = GI50 up to about 1.1 µM and inactive = higher.

Consider the molecule CC(C)C(NC(=O)Oc1ccccc1)C(=O)NC1c2c(Br)sc(Br)c2C(=O)C1O (stereo not drawn) and give its measured GI50.
4.72 µM (inactive)

Consider the molecule CC(=NNC(=S)Nc1ccc(C)cc1)c1cccc(C(C)=NNC(=S)Nc2ccc(C)cc2)n1 and give its measured GI50.
13.9 µM (inactive)

Consider the molecule CCOC(=O)CSc1nnc(CSc2nc(-c3ccccc3)c(-c3ccccc3)[nH]2)n1-c1ccccc1 and give its measured GI50.
29.3 µM (inactive)

Consider the molecule CO[C@H](c1ccccc1)[C@H](C)N(C)c1ccc2ccccc2c1C1=NC(C)(C)CO1 and give its measured GI50.
15.7 µM (inactive)

Consider the molecule COc1ccc2c(c1)CCC1=C/C(=N\NC(N)=O)CCC12C (stereo not drawn) and give its measured GI50.
> 10 µM (inactive)

Consider the molecule COc1ccc2cc1Oc1ccc(cc1)CC1c3c(cc(OC)c4c3Oc3cc5c(cc3O4)CCNC5C2)CCN1C (stereo not drawn) and give its measured GI50.
1.67 µM (inactive)

Consider the molecule Oc1ccccc1/C=C/c1csnn1 and give its measured GI50.
> 100 µM (inactive)

Consider the molecule OCCn1cnc2c(SCc3ccccc3)ncnc21 and give its measured GI50.
> 100 µM (inactive)

Consider the molecule CC(Nc1ccc(S(=O)(=O)NC(=N)N)cc1)c1c2ccccc2nc2ccccc12 (stereo not drawn) and give its measured GI50.
35.3 µM (inactive)

Consider the molecule O=C1OC[C@@H]2Cc3cc4c(cc3[C@H](c3ccc5c(c3)OCO5)[C@@H]12)OCO4 and give its measured GI50.
> 25 µM (inactive)

Consider the molecule C=C(C)[C@H]1C[C@@H]2O[C@@](O)(/C(C)=C\C(=O)/C=C(/C)C[C@H]3OC(=O)[C@@]24O[C@H]34)[C@@H]1O and give its measured GI50.
> 100 µM (inactive)

Consider the molecule O=C(c1c2c(cc3c1CC1(Cc4cc5c(cc4C1)CCCC5)C3)CCCC2)C(Br)Br and give its measured GI50.
19.9 µM (inactive)

Consider the molecule C=C(C)[C@@H]1CCC2=C(CC[C@]3(C)[C@@H]([C@@H](CCC=C(C)C)C(=O)O)[C@H](O)C[C@@]23C)[C@@]1(C)CCC(=O)O and give its measured GI50.
> 100 µM (inactive)

Consider the molecule CON(C(=O)OC(C)(C)C)c1ccccc1 and give its measured GI50.
> 100 µM (inactive)

Consider the molecule CCOC(=O)c1c(N)n(-c2ccccc2)c(=O)n(-c2ccccc2)c1=O and give its measured GI50.
> 100 µM (inactive)

Consider the molecule CC1=C(C(=O)Nc2cc(=O)n(C)c(=O)n2C)C(c2cccc([N+](=O)[O-])c2)C(C(=O)Nc2cc(=O)n(C)c(=O)n2C)=C(C)N1 and give its measured GI50.
> 100 µM (inactive)

Consider the molecule Cc1ccc2c(n1)C(=O)c1cc(C)c(C)cc1C2=O and give its measured GI50.
30.4 µM (inactive)

Consider the molecule C[N+](C)(C)/N=C\c1ccc(O)c(O)c1 and give its measured GI50.
> 100 µM (inactive)

Consider the molecule O=C(CSCC(=O)N/N=C/c1cccc(C(F)(F)F)c1)N/N=C/c1cccc(C(F)(F)F)c1 and give its measured GI50.
> 100 µM (inactive)

Consider the molecule COCNC(=NC#N)NCOC and give its measured GI50.
> 100 µM (inactive)

Consider the molecule O=C1Nc2cc(F)ccc2C1=O and give its measured GI50.
> 100 µM (inactive)

Consider the molecule O=C/C(=C(/Br)I)c1ccccc1 and give its measured GI50.
5.69 µM (inactive)

Consider the molecule CCn1nc(C)c2c1C(=O)NC(C)C(=O)N2 (stereo not drawn) and give its measured GI50.
> 100 µM (inactive)

Consider the molecule COc1ccc(/C=C2/C(C)=NN(c3cccc(Cl)c3)/C2=N/c2nc3ccccc3s2)cc1 and give its measured GI50.
22.6 µM (inactive)

Consider the molecule COC(=O)C1=C(O)C(C(=O)OC)[C@]2(O)[C@H](C(=O)OC)[C@H]1C[C@@H](c1ccc(F)cc1)[C@H]2C(=O)OC (stereo partly drawn) and give its measured GI50.
11.9 µM (inactive)

Consider the molecule O=NN(CCCl)C(=O)N[C@H]1CC[C@H](CC(=O)O)CC1 and give its measured GI50.
> 100 µM (inactive)

Consider the molecule O=C1N[C@H](Cc2c[nH]cn2)C(=O)N2CCC[C@@H]12 and give its measured GI50.
> 100 µM (inactive)

Consider the molecule CCCCNC(=S)Nc1nc(C(=O)NNS(=O)(=O)c2ccccc2)cs1 and give its measured GI50.
22.9 µM (inactive)

Consider the molecule O=CN1CCN(C(=O)c2ccc(Cl)c(Cl)c2)C1=S and give its measured GI50.
17.7 µM (inactive)

Consider the molecule COc1cc(C(=O)Oc2ccc3c(c2)OCO3)cc(OC)c1OC and give its measured GI50.
> 100 µM (inactive)

Consider the molecule O=C1NC(=O)C(=O)C(c2nc3ccccc3s2)C1=O and give its measured GI50.
> 100 µM (inactive)

Consider the molecule NC(=O)c1cc2ccc(O)cc2o/c1=N/c1ccccc1 and give its measured GI50.
39.3 µM (inactive)

Consider the molecule COCC12CCC(OC)C34C5CC6(O)C(OC)C=C(C5C6OC(=O)c5ccccc5)C(C(OC)C13)C4N(C)C2 (stereo not drawn) and give its measured GI50.
> 100 µM (inactive)

* * *

- Test system: SF-295
- procedure_details: NCI tumour cell line growth inhibition, 48 h
The source made the active and inactive calls. Rule as the data show it: active = GI50 up to about 1.1 µM and inactive = higher.
Would you mind answering with one of these outcomes? true for active, false for inactive

Which outcome did this test record for the molecule Cc1c(-c2c(C)c3ccccc3n2S(=O)(=O)c2ccccc2)n(S(=O)(=O)c2ccccc2)c2ccccc12 ?
false

Which outcome did this test record for the molecule COc1cccc2c1C(=O)c1c(O)c3c(c(O)c1C2=O)CC(O)(C(=O)CO)CC3OC1CC(N2CCOCC2C#N)C(O)C(C)O1 (stereo unspecified) ?
true

Which outcome did this test record for the molecule COc1cc(C(O)C(=O)c2cnc3cc([N+](=O)[O-])ccc3n2)ccc1O (stereo unspecified) ?
false

Which outcome did this test record for the molecule Cc1cc(Cl)cc2c1NC(=O)C2(O)CC(=O)c1ccc(Br)cc1 (stereo unspecified) ?
false

Which outcome did this test record for the molecule Cc1cccc(NC(=S)Nc2ccc([N+](=O)[O-])cc2)n1 ?
false

Which outcome did this test record for the molecule Nc1nc2c(c(-c3ccccc3Cl)n1)COC/C2=C\c1ccccc1Cl ?
false

* * *

- Test system: BT-549
- procedure_details: NCI tumour cell line growth inhibition, 48 h
Activity calls are given as the source filed them. Rule as the data show it: active = GI50 up to about 1.1 µM and inactive = higher.
Would you mind answering with one of these outcomes? active, inactive

Which outcome did this test record for the compound NC(=S)N1N=C2c3ccccc3CCC[C@H]2[C@@H]1c1ccccc1 ?
active

Which outcome did this test record for the compound COC(=O)C1=C(O)C(C(=O)OC)[C@]2(O)[C@H](C(=O)OC)[C@H]1C[C@@H](c1ccc(F)cc1)[C@H]2C(=O)OC (some centres not stated) ?
inactive

Which outcome did this test record for the compound O=C(C1OC1c1ccc(Cl)cc1)C12CC3CC(CC(C3)C1)C2 (configuration not stated) ?
inactive

Which outcome did this test record for the compound CC1(C)[C@H]2Cc3cc4nc5ccccn5c4cc3[C@@H]1C2 ?
inactive

Which outcome did this test record for the compound CSc1ncnc2c1ncn2C1CC(Oc2ccc(C)cc2)C(COc2ccc(C)cc2)O1 (configuration not stated) ?
inactive

Which outcome did this test record for the compound COc1cccc2c1C(=O)c1c(O)c3c(c(O)c1C2=O)CC(O)(C(=O)CO)CC3OC1CC(N2CCOCC2C#N)C(O)C(C)O1 (configuration not stated) ?
active

Which outcome did this test record for the compound O=c1c(-c2ccccc2)nnc2n(Cc3ccccc3)c3ccccc3n12 ?
inactive

* * *

Would you kindly list GI50 for each of these compounds?
- Test system: K562
- procedure_details: NCI tumour cell line growth inhibition, 48 h
Calls of active or inactive are those of the source. Cut-off read from the data, not from the text of the source: active = GI50 up to about 1.1 µM and inactive = higher.

Consider the compound Cc1cc2c(cc1C)[n+]([O-])c(NCCCN(C)C)c(C#N)[n+]2[O-] and give its measured GI50.
37.5 µM (inactive)

Consider the compound COc1ccc2c(c1)CCN1CCc3cc(OC)c(OC)cc3CC21 (configuration not stated) and give its measured GI50.
34.9 µM (inactive)

Consider the compound CC(C)C(NC(=O)Oc1ccccc1)C(=O)NC1c2c(Br)sc(Br)c2C(=O)C1O (configuration not stated) and give its measured GI50.
7.8 µM (inactive)

Consider the compound COc1ccc(/N=N/c2c(-c3ccccc3)nn(C(=O)CC(=O)Nc3ccc(OC)cc3)c2-c2ccccc2)cc1 and give its measured GI50.
27 µM (inactive)

Consider the compound O=C(NC(Cc1ccc(Br)cc1)C(=O)O)c1ccc(I)cc1 (configuration not stated) and give its measured GI50.
> 100 µM (inactive)

Consider the compound Cc1cccc(NC(=S)Nc2ccc([N+](=O)[O-])cc2)n1 and give its measured GI50.
> 100 µM (inactive)

Consider the compound CN(C)/C=[N+]1/[C@@H](Cc2ccccc2)C(=O)O[B-]1(F)c1ccccc1 (some centres not stated) and give its measured GI50.
> 100 µM (inactive)

The reported numbers originate from ChEMBL document CHEMBL1201862.
